Exercise: for every item that follows, state its recorded Vmaxapp.
measurementTarget: Jack bean urease (Canavalia ensiformis, UniProt P07374)
Sequence (P07374 whole entry, looked up): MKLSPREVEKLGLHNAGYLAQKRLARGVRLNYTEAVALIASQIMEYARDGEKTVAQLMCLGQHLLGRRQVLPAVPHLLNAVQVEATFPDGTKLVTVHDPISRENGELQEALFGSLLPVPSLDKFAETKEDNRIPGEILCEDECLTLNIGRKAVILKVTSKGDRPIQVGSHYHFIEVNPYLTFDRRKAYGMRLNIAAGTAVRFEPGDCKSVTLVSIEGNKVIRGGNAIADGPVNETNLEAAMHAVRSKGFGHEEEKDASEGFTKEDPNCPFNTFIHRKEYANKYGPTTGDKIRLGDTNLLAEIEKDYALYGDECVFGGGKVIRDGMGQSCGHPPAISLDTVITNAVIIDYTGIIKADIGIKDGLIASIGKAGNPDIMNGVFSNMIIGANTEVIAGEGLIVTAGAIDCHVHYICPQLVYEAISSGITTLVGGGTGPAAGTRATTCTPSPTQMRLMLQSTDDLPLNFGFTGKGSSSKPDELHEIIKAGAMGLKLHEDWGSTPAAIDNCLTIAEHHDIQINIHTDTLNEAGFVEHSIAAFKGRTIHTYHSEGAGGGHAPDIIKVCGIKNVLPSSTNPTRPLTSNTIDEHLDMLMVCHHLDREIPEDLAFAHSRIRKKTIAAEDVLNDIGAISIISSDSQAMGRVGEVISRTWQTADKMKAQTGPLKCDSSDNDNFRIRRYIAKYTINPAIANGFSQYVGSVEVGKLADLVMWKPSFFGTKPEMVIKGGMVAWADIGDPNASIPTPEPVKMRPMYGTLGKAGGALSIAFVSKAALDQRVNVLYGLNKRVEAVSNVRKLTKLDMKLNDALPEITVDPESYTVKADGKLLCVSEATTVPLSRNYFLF
measurementNotes: biochemical
condition: Urease (JB); Vmax without inhibitor 105

Query Vmaxapp for O=c1oc2ccccc2c(O)c1C(c1c(O)c2ccccc2oc1=O)c1c[nH]c2ccccc12 [compound 9]
108

Query Vmaxapp for CCCCC(c1c(O)c2ccccc2oc1=O)c1c(O)c2ccccc2oc1=O [compound 6]
106

Query Vmaxapp for COc1cccc(C(c2c(O)c3ccccc3oc2=O)c2c(O)c3ccccc3oc2=O)c1 [compound 1]
109

Query Vmaxapp for CC(c1c(O)c2ccccc2oc1=O)c1c(O)c2ccccc2oc1=O [compound 3]
108

Query Vmaxapp for O=c1oc2ccccc2c(O)c1C(c1cccnc1)c1c(O)c2ccccc2oc1=O [compound 10]
105

Query Vmaxapp for O=c1oc2ccccc2c(O)c1Cc1c(O)c2ccccc2oc1=O [compound 7]
102

Query Vmaxapp for C/C=C/C(c1c(O)c2ccccc2oc1=O)c1c(O)c2ccccc2oc1=O [compound 4]
105

Query Vmaxapp for O=c1oc2ccccc2c(O)c1C(c1ccncc1)c1c(O)c2ccccc2oc1=O [compound 2]
106

Query Vmaxapp for O=c1oc2ccccc2c(O)c1C(/C=C/c1ccccc1)c1c(O)c2ccccc2oc1=O [compound 8]
104

Query Vmaxapp for O=c1oc2ccccc2c(O)c1C(c1cc[nH]c1)c1c(O)c2ccccc2oc1=O [compound 5]
103

====

measurementTarget: Bacillus pasteurii urease (Sporosarcina pasteurii, UniProt P41020)
Sequence (P41021 whole entry): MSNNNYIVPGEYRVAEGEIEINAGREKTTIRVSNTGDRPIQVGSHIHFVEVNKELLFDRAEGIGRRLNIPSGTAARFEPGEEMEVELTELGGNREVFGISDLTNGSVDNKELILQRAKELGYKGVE
Sequence (P41022 whole entry, further chain): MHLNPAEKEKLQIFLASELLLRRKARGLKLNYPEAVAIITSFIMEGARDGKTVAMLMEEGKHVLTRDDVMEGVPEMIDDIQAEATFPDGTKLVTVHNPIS
Sequence (P41020 whole entry): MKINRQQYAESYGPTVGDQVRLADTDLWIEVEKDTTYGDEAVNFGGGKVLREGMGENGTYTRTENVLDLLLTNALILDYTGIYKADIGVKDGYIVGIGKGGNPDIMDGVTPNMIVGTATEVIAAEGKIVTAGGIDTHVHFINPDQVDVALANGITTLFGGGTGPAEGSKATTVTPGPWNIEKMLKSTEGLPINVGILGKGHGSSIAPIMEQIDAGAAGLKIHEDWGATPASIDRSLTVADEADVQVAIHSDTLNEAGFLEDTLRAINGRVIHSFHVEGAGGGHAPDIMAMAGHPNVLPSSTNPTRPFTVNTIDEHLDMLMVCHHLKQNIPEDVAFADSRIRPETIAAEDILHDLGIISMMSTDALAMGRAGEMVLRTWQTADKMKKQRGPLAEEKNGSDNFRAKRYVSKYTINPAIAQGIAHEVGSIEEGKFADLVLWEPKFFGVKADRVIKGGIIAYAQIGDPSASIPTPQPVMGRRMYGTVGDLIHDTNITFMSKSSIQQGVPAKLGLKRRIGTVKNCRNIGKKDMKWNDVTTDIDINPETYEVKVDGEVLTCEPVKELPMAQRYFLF
measurementNotes: Urease assay and inhibition kinetics, Bacillus pasteurii urease
Format: biochemical
condition: Urease (BP); Km without inhibitor 5.1 mM
Threshold rule: Kmapp greater than or equal to 10 mM is Y; below that, N.

Record CCCCC(c1c(O)c2ccccc2oc1=O)c1c(O)c2ccccc2oc1=O ; criterion: Kmapp no lower than 10 mM. Met?
Y

Record C/C=C/C(c1c(O)c2ccccc2oc1=O)c1c(O)c2ccccc2oc1=O ; criterion: Kmapp no lower than 10 mM. Met?
N

Record O=c1oc2ccccc2c(O)c1C(c1c(O)c2ccccc2oc1=O)c1c[nH]c2ccccc12 ; criterion: Kmapp no lower than 10 mM. Met?
N

Record O=c1oc2ccccc2c(O)c1C(c1ccncc1)c1c(O)c2ccccc2oc1=O ; criterion: Kmapp no lower than 10 mM. Met?
N

Record O=c1oc2ccccc2c(O)c1C(c1cc[nH]c1)c1c(O)c2ccccc2oc1=O ; criterion: Kmapp no lower than 10 mM. Met?
N

Record O=c1oc2ccccc2c(O)c1C(c1cccnc1)c1c(O)c2ccccc2oc1=O ; criterion: Kmapp no lower than 10 mM. Met?
Y

Record COc1cccc(C(c2c(O)c3ccccc3oc2=O)c2c(O)c3ccccc3oc2=O)c1 ; criterion: Kmapp no lower than 10 mM. Met?
Y

Record CC(c1c(O)c2ccccc2oc1=O)c1c(O)c2ccccc2oc1=O ; criterion: Kmapp no lower than 10 mM. Met?
N

Record O=c1oc2ccccc2c(O)c1C(/C=C/c1ccccc1)c1c(O)c2ccccc2oc1=O ; criterion: Kmapp no lower than 10 mM. Met?
N

====

Test system: Lemna aequinoctialis Welv.
measurementNotes: Lemna phytotoxicity assay
condition: conc. of compound 1000 μg/mL; seven days
experimentalEndpoint: Lemna Welv. phytotoxicity (growth inhibition)
I'd appreciate a reply containing only the number, no unit.

Query Lemna Welv. phytotoxicity (growth inhibition) for COc1cccc(C(c2c(O)c3ccccc3oc2=O)c2c(O)c3ccccc3oc2=O)c1
80

Query Lemna Welv. phytotoxicity (growth inhibition) for O=c1oc2ccccc2c(O)c1C(/C=C/c1ccccc1)c1c(O)c2ccccc2oc1=O
70.0

Query Lemna Welv. phytotoxicity (growth inhibition) for O=c1oc2ccccc2c(O)c1C(c1cc[nH]c1)c1c(O)c2ccccc2oc1=O
61.4

Query Lemna Welv. phytotoxicity (growth inhibition) for O=c1oc2ccccc2c(O)c1C(c1cccnc1)c1c(O)c2ccccc2oc1=O
57.14

Query Lemna Welv. phytotoxicity (growth inhibition) for O=c1oc2ccccc2c(O)c1C(c1ccncc1)c1c(O)c2ccccc2oc1=O
52.7

Query Lemna Welv. phytotoxicity (growth inhibition) for CCCCC(c1c(O)c2ccccc2oc1=O)c1c(O)c2ccccc2oc1=O
69.6

Query Lemna Welv. phytotoxicity (growth inhibition) for CC(c1c(O)c2ccccc2oc1=O)c1c(O)c2ccccc2oc1=O
54.8

====

System: Lemna aequinoctialis Welv.
measurementNotes: Lemna phytotoxicity assay
condition: conc. of compound 100 μg/mL; seven days
Exercise: for every item that follows, state its recorded Lemna Welv. phytotoxicity (growth inhibition).
I'd appreciate a reply containing only the number, no unit.

Query Lemna Welv. phytotoxicity (growth inhibition) for O=c1oc2ccccc2c(O)c1C(c1cc[nH]c1)c1c(O)c2ccccc2oc1=O
25.00

Query Lemna Welv. phytotoxicity (growth inhibition) for O=c1oc2ccccc2c(O)c1C(c1ccncc1)c1c(O)c2ccccc2oc1=O
33

Query Lemna Welv. phytotoxicity (growth inhibition) for C/C=C/C(c1c(O)c2ccccc2oc1=O)c1c(O)c2ccccc2oc1=O
100

Query Lemna Welv. phytotoxicity (growth inhibition) for O=c1oc2ccccc2c(O)c1C(c1cccnc1)c1c(O)c2ccccc2oc1=O
47.6

Query Lemna Welv. phytotoxicity (growth inhibition) for CC(c1c(O)c2ccccc2oc1=O)c1c(O)c2ccccc2oc1=O
22.5

Query Lemna Welv. phytotoxicity (growth inhibition) for O=c1oc2ccccc2c(O)c1C(c1c(O)c2ccccc2oc1=O)c1c[nH]c2ccccc12
50.00

Query Lemna Welv. phytotoxicity (growth inhibition) for CCCCC(c1c(O)c2ccccc2oc1=O)c1c(O)c2ccccc2oc1=O
42.50

Query Lemna Welv. phytotoxicity (growth inhibition) for O=c1oc2ccccc2c(O)c1C(/C=C/c1ccccc1)c1c(O)c2ccccc2oc1=O
22.99

Query Lemna Welv. phytotoxicity (growth inhibition) for COc1cccc(C(c2c(O)c3ccccc3oc2=O)c2c(O)c3ccccc3oc2=O)c1
60.3

====

measurementTarget: Bacillus pasteurii urease (Sporosarcina pasteurii, UniProt P41020)
measurementNotes: Urease assay and inhibition kinetics, Bacillus pasteurii urease
Type: biochemical
experimentalEndpoint: Ki (µM)
Value expressed in µM; do not type the unit.

Query Ki for O=c1oc2ccccc2c(O)c1Cc1c(O)c2ccccc2oc1=O
13.3

====

Tested on: Lemna aequinoctialis Welv.
measurementNotes: Lemna phytotoxicity assay
condition: conc. of compound 10 μg/mL; seven days
Threshold rule: Lemna Welv. phytotoxicity (growth inhibition) greater than or equal to 9 is True; below that, False.

Record O=c1oc2ccccc2c(O)c1C(c1c(O)c2ccccc2oc1=O)c1c[nH]c2ccccc12 ; criterion: Lemna Welv. phytotoxicity (growth inhibition) no lower than 9. Met?
True

Record CC(c1c(O)c2ccccc2oc1=O)c1c(O)c2ccccc2oc1=O ; criterion: Lemna Welv. phytotoxicity (growth inhibition) no lower than 9. Met?
False

Record O=c1oc2ccccc2c(O)c1C(/C=C/c1ccccc1)c1c(O)c2ccccc2oc1=O ; criterion: Lemna Welv. phytotoxicity (growth inhibition) no lower than 9. Met?
True

Record CCCCC(c1c(O)c2ccccc2oc1=O)c1c(O)c2ccccc2oc1=O ; criterion: Lemna Welv. phytotoxicity (growth inhibition) no lower than 9. Met?
True

Record O=c1oc2ccccc2c(O)c1C(c1cccnc1)c1c(O)c2ccccc2oc1=O ; criterion: Lemna Welv. phytotoxicity (growth inhibition) no lower than 9. Met?
True

Record O=c1oc2ccccc2c(O)c1C(c1ccncc1)c1c(O)c2ccccc2oc1=O ; criterion: Lemna Welv. phytotoxicity (growth inhibition) no lower than 9. Met?
False

Record COc1cccc(C(c2c(O)c3ccccc3oc2=O)c2c(O)c3ccccc3oc2=O)c1 ; criterion: Lemna Welv. phytotoxicity (growth inhibition) no lower than 9. Met?
True

Record C/C=C/C(c1c(O)c2ccccc2oc1=O)c1c(O)c2ccccc2oc1=O ; criterion: Lemna Welv. phytotoxicity (growth inhibition) no lower than 9. Met?
True

====

measurementTarget: UniProt:P41020
measurementNotes: Urease assay and inhibition kinetics, Bacillus pasteurii urease
Format: biochemical
Set-up: unit not given here
condition: Urease (BP); Vmax without inhibitor 160
experimentalEndpoint: Vmaxapp
I'd appreciate a reply containing only the number, no unit.

Query Vmaxapp for O=c1oc2ccccc2c(O)c1C(c1cc[nH]c1)c1c(O)c2ccccc2oc1=O
93.7

Query Vmaxapp for CC(c1c(O)c2ccccc2oc1=O)c1c(O)c2ccccc2oc1=O
115.3

Query Vmaxapp for O=c1oc2ccccc2c(O)c1Cc1c(O)c2ccccc2oc1=O
162.5

Query Vmaxapp for CCCCC(c1c(O)c2ccccc2oc1=O)c1c(O)c2ccccc2oc1=O
159.2

Query Vmaxapp for O=c1oc2ccccc2c(O)c1C(c1ccncc1)c1c(O)c2ccccc2oc1=O
98.0

Query Vmaxapp for C/C=C/C(c1c(O)c2ccccc2oc1=O)c1c(O)c2ccccc2oc1=O
101.0

Query Vmaxapp for COc1cccc(C(c2c(O)c3ccccc3oc2=O)c2c(O)c3ccccc3oc2=O)c1
159.3

Query Vmaxapp for O=c1oc2ccccc2c(O)c1C(/C=C/c1ccccc1)c1c(O)c2ccccc2oc1=O
161.7

Query Vmaxapp for O=c1oc2ccccc2c(O)c1C(c1c(O)c2ccccc2oc1=O)c1c[nH]c2ccccc12
97.2

====

Exercise: for every item that follows, state its recorded viability at 200 µg/mL.
measurementNotes: Viability of human neutrophils (WST-1)
Assay type: cell-based
condition: isolated human neutrophils; human neutrophils 1 × 10^7 cells/mL; conc. 200 µg/mL
Value expressed in %; do not type the unit.

Query viability at 200 µg/mL for C/C=C/C(c1c(O)c2ccccc2oc1=O)c1c(O)c2ccccc2oc1=O
13.2

Query viability at 200 µg/mL for O=c1oc2ccccc2c(O)c1C(c1cc[nH]c1)c1c(O)c2ccccc2oc1=O
100

Query viability at 200 µg/mL for O=c1oc2ccccc2c(O)c1C(c1ccncc1)c1c(O)c2ccccc2oc1=O
85.1

Query viability at 200 µg/mL for O=c1oc2ccccc2c(O)c1C(c1cccnc1)c1c(O)c2ccccc2oc1=O
95.4

Query viability at 200 µg/mL for COc1cccc(C(c2c(O)c3ccccc3oc2=O)c2c(O)c3ccccc3oc2=O)c1
67.5

Query viability at 200 µg/mL for CC(c1c(O)c2ccccc2oc1=O)c1c(O)c2ccccc2oc1=O
100

Query viability at 200 µg/mL for CCCCC(c1c(O)c2ccccc2oc1=O)c1c(O)c2ccccc2oc1=O
45.5

Query viability at 200 µg/mL for O=c1oc2ccccc2c(O)c1Cc1c(O)c2ccccc2oc1=O
100

Query viability at 200 µg/mL for O=c1oc2ccccc2c(O)c1C(c1c(O)c2ccccc2oc1=O)c1c[nH]c2ccccc12
100

Query viability at 200 µg/mL for O=c1oc2ccccc2c(O)c1C(/C=C/c1ccccc1)c1c(O)c2ccccc2oc1=O
100

Reference source for all entries: paper PMC4176650
